Reference source: the supplement of paper PMC9170038

Tested on: K4 kissing-loop RNA reporter;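 note: bound reporter read as fluorescence of individual clusters on recovered sequencing chips by microscopy, with normalized cluster intensities fitted with a binding model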
METHOD: apparent KD of K4 kissing-loop reporter; higher = weaker reporter binding
SETTINGS: Eterna round: R107; input ligand: tryptophan 2.4 mM
Class Yes: apparent KD of K4 kissing-loop reporter at least 0.2 µM. Class No: apparent KD of K4 kissing-loop reporter below 0.2 µM.

>  <SEQUENCE_CODE>
CGCAAGCAGCUAGUGAUGUUGGCCGCCUUGCGAGGACCGGUACGGCCGCCACUCGGAGGCGGCUACUGAUAAACCGUCUAACGGA [KL-XTryp-A10]

>  <LABEL>
Yes

$$$$
>  <SEQUENCE_CODE>
ACGUAUAUCAGAGGAUAUCGUAUUAAUAUUUUAUCUAUAUAUUAUAGCAGUGAUGUUGCAAUUAUUCGAGAAGGCUGAUUUACGA [JR_SSFMNB_Sub023]

>  <LABEL>
No

$$$$
>  <SEQUENCE_CODE>
AGACUACCACACUGUCAAUAGACAGUGGACUAGGAUAUGCUGAUAAGCAGAAGGAGUGAUGUUCCAAGGUAGUCAAUAAAAUAAU [FmnAX 13 G28+A66]

>  <LABEL>
Yes

$$$$
>  <SEQUENCE_CODE>
GGGAGUGAUGUUCCCACGUUGUCGGUCCUCCGAGGACCGGUACGGCCGCCACUCGCGACCCAGUGAUGUUGGGACUCACCGUACC [Exclusion Tryptophan A Gf 12]

>  <LABEL>
Yes

$$$$
>  <SEQUENCE_CODE>
UGUAUGUGAUUUGAUACCAGACCAGCUGAUGGAUCACGAGUGAUGUUCGUGUUGGUUUGGGUCCCUUGGCAGCAAAUCGCAUACU [KL-SSTheoB14]

>  <LABEL>
Yes

$$$$
>  <SEQUENCE_CODE>
AGUGAUGUAUGGCGGUUUGUCACUUAAAAUCAGGAUAUAUAAACAAAUAGAAGGGAUGGCGGAGUGAUGUUCCGCCGGCCGCCAU [FMN A Exl V1]

>  <LABEL>
No

$$$$

* * *

Examples of sequences with documented apparent KD of MS2 coat protein follow.
System: MS2 coat protein
METHOD: apparent KD of MS2 coat protein, switch OFF state (with FMN for OFF switches, without FMN for ON switches); designed switch direction (-1 OFF switch, 1 ON switch): -1; higher = weaker reporter binding
SETTINGS: FMN input: 0 or 200 uM; Eterna round: R93 (includes R88 designs)

>  <SEQUENCE_CODE>
AGUAGGCGAGGAUAUACAUGAGGAUCACCCAUGUGAAAGAAAAAAGUGAGAAAGAAAAGUAGAAGGCGCUGACA [Ex 3 mod of Eli's mod of Lego's 73%]

>  <apparent KD of MS2 coat protein, nM>
204

$$$$
>  <SEQUENCE_CODE>
AAAAGCUAAGGAUAUACAUGAGGAUCACCCAUGUAGAACAGUGUAUGGGUAAAGGCGCGUAGAAGGUAGAAAAG [Arbileat]

>  <apparent KD of MS2 coat protein, nM>
42.1

$$$$
>  <SEQUENCE_CODE>
AAAAAACAUGAGGAUCACCCAUGUAAGGAUAUCGAAAAGAAAAGAAAAGAAAGAAGAACGAGAAGGUACAAGAA [Neferirkare Kakai]

>  <apparent KD of MS2 coat protein, nM>
16

$$$$
>  <SEQUENCE_CODE>
GAAGAACAUGAGGAUCACCCAUGUCAGGAUAUGCACUACGGAAUAAUAAGUAAUGGAAGUAGAAGGGACAAGAA [Ex 1 May 53]

>  <apparent KD of MS2 coat protein, nM>
26.4

$$$$
>  <SEQUENCE_CODE>
AAAAAGGGAGGAUAUGCAUACACACAAAAAAAAAAAAAGGGACAUGAGGAUCACCCAUGUAGAAGGCCCAAAAA [Dora Explored 5 - Jieux - Exclusion 2]

>  <apparent KD of MS2 coat protein, nM>
25.1

$$$$
>  <SEQUENCE_CODE>
AAAAAAAAAGGAUAUAAAACAGAGGAUAUACAUAAAUAAAAACAUGAGGAUCACCCAUGUAGAAGGCUGAAAAA [Meechl Ex2 R2 m0]

>  <apparent KD of MS2 coat protein, nM>
22.2

$$$$
>  <SEQUENCE_CODE>
CCCAUGUCAGGAUAUCAGUAGUAAAAAAAAAAAAUUACUACUGAGAAGGGACAUGAGGAUCACCCAUGUCAAAA [EX4 315: Super Stable 15]

>  <apparent KD of MS2 coat protein, nM>
21

$$$$
>  <SEQUENCE_CODE>
CUCUUGUCAGGAUAUGAAAGAAAAGAAGAGAAAGAAAAGAAUCAGAAGGGACAUGAGGAUCACCCAUGUAAGAA [EteRNA is fun!]

>  <apparent KD of MS2 coat protein, nM>
77.9

$$$$
>  <SEQUENCE_CODE>
GAAAAACAUGAGGAUCACCCAUGUAAGGAUAUGCUGAAAAAACACUGGAAACAGUGCAGCAGAAGGUACAAAAG [Mat - Exclusion 1 - Eli mod - D100]

>  <apparent KD of MS2 coat protein, nM>
73.3

$$$$
>  <SEQUENCE_CODE>
GAAAUACGAGGAUAUACAUGAGGAUCACCCAUGUCAAAAAAUGACUACACAAAAGAAAGUAGAAGGCGUAAAAG [Mat - Exclusion 3 - Mayanna mod - D128]

>  <apparent KD of MS2 coat protein, nM>
38.4

$$$$
>  <SEQUENCE_CODE>
GCUUGGGAAGGAUAUACAUGAGGAUCACCCAUGUGAGAGAAAAAAGUGAGAAAGAAAAGUAGAAGGUCCUGAGG [salish99-ex3-108]

>  <apparent KD of MS2 coat protein, nM>
152

$$$$
>  <SEQUENCE_CODE>
AGGAGACAUGAGGAUCACCCAUGUUAGGAUAUGAACGAAAAUAAAUAAAAAUAAAAGUUCAGAAGGGACGAAAA [66%, Wbt, 8]

>  <apparent KD of MS2 coat protein, nM>
44.7

$$$$
>  <SEQUENCE_CODE>
AUAAAACAUGAGGAUCACCCAUGUGAGGAUAUGCGAAAAAAAAAAAGAAAAAAAAAAAGCAGAAGGCACAAUAA [Amethyst 43]

>  <apparent KD of MS2 coat protein, nM>
34.9

$$$$
>  <SEQUENCE_CODE>
AAGAAGCUAGGAUAUACAUGAGGAUCACCCAUGUAAAAGAAAGAAAAGGGAAAGAAAAGUAGAAGGAGCAAGAA [Menpehtire Ramesses I]

>  <apparent KD of MS2 coat protein, nM>
35.6

$$$$
>  <SEQUENCE_CODE>
AAGGUAUGAGGAUAUACAUAGAUACAGACACAUGUUCAAGUACAUGAGGAUCACCCAUGUAGAAGGCAUAUAUA [AJ 14]

>  <apparent KD of MS2 coat protein, nM>
33

$$$$
>  <SEQUENCE_CODE>
GGUUGGCGAGGAUAUACAUGAGGAUCACCCAUGUGAGAGAAAAAAGUGAGAAAGAAAAGUAGAAGGUGUUGACG [salish99-ex3-70]

>  <apparent KD of MS2 coat protein, nM>
56.7

$$$$
>  <SEQUENCE_CODE>
AAAUUGUCAGGAUAUCGUAUAACAUGGAAAACAUGGAGAUACGAGAAGGGACAUGAGGAUCACCCAUGUAAAAC [May 95]

>  <apparent KD of MS2 coat protein, nM>
87.4

$$$$
>  <SEQUENCE_CODE>
AGAAAACAUGAGGAUCACCCAUGUCAGGAUAUCUAAAAGAAAAGAAAAGAAAGAAGAAAGAGAAGGGACAAGAA [Sekhemib-Perenmaat]

>  <apparent KD of MS2 coat protein, nM>
25.5

$$$$
>  <SEQUENCE_CODE>
AGGAAGUGAGGAUAUGCAGCAUAUAGUGGACGCUAUAGCAUGUAGAAGGCACAUGAGGAUCACCCAUGUUUAAA [EX4 Malc#38]

>  <apparent KD of MS2 coat protein, nM>
34.9

$$$$
>  <SEQUENCE_CODE>
GGAAAGUGAGGAUAUGCAUAACAAAUACAAAGAGAAACAAAGCAGAAGGCACAUGAGGAUCACCCAUGUAAACA [Exclusion 4 Float]

>  <apparent KD of MS2 coat protein, nM>
22.7

$$$$
>  <SEQUENCE_CODE>
AGCAAGUCAGGAUAUGCGAAGUCAGGACACACACUGACGAAGCAGAAGGGACAUGAGGAUCACCCAUGUAAGCA [JR_Exclusion4_Sub6]

>  <apparent KD of MS2 coat protein, nM>
39.3

$$$$
>  <SEQUENCE_CODE>
AAGAAAGCAGGAUAUACAAAAUAAAAGAAAAGAAAGAAAGAACAUGAGGAUCACCCAUGUAGAAGGGCUAAGAA [Khahotepre Sobekhotep VI]

>  <apparent KD of MS2 coat protein, nM>
32.3

$$$$
>  <SEQUENCE_CODE>
AAGACUAGAGGAUAUACAUGAGGAUCACCCAUGUAACUGUCAGGAGACUGACGGAGAAGUAGAAGGCUAGUCAA [Mat - Exclusion 3 - JL mod - D84]

>  <apparent KD of MS2 coat protein, nM>
19.4

$$$$
>  <SEQUENCE_CODE>
AGGGAGUGAGGAUAUGCGAAAUAAAAAGAAGGAAAAAAAGAGCAGAAGGCACAUGAGGAUCACCCAUGUGAGAA [milkweed 11]

>  <apparent KD of MS2 coat protein, nM>
15.7

$$$$
>  <SEQUENCE_CODE>
AAAAUACAUGAGGAUCACCCAUGUGAGGAUAUCGUAAAGAAAGUGAUCAAAAGAAAUACGAGAAGGCACAUAAA [PK3]

>  <apparent KD of MS2 coat protein, nM>
212

$$$$
